- target_entity: T1, human common cytokine receptor γ-chain (IL-2Rγ) (human, UniProt P31785 23-262, limits assumed)
- T1 construct: Recombinant human IL-2Rγ protein, coated (ELISA) or amine-coupled to a CM5 chip (SPR); also called hu IL-2R; CD132
- T1 sequence: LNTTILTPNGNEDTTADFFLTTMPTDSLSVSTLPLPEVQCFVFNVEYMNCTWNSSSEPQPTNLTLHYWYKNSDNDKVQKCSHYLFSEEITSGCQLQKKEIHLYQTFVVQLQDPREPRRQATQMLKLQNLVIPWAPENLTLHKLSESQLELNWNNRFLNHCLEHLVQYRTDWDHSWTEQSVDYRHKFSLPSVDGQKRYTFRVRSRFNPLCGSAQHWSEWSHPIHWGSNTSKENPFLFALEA
- protocol_details: P.E. off-rate SPR
measured_attribute: koff
Answer with the figure and its unit, nothing else.

>>> assay_value("FJ1427_P035MP07B04 (VHH, tested as periplasmic extract; also called Clone nr; 602) VHH: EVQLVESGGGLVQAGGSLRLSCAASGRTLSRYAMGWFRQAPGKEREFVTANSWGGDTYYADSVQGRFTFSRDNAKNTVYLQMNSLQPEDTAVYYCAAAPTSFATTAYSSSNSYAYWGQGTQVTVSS")
"0.00277 s⁻¹"

// switching to the query binder
Exercise: Which koff value belongs to FJ1427_P035MP07A01 (VHH, tested as periplasmic extract; also called Clone nr) VHH: EVQLVESGGGLVQAGDSLRLSCAASGRTLSRYAMGWFRQAPGKEREFVTANSWGGDTYYADSVQGRFTFSRDNAKNTVYLQMNSLQPEDTAVYYCAAAPTSFATTAYSSSNSYAYWGQGTQVTVSS ?
Solution: 0.00151 s⁻¹
